- Tgt: T1, GDF11 (UniProt O95390 299-407)
- T1 construct: also called BMP11
- T1 sequence (looked up): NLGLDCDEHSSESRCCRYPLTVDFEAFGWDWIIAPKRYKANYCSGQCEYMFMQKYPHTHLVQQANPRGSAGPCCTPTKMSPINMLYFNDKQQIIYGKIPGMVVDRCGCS
- Assay Explanation: SPR (Biacore); receptor-Fc captured by anti-hFc antibody, ligand injected
Value Kind: koff
Remember to follow the number with its unit.

ActRIIB(L79E 20-134)-hFc (Fc fusion) GRGEAETRECIYYNANWELERTNQSGLERCEGEQDKRLHCYASWRNSSGTIELVKKGCWEDDFNCYDRQECVATEENPQVYFCCCEGNFCNERFTHLPEAGGPEVTYEPPPTAPTGGGTHTCPPCPAPELLGGPSVFLFPPKPKDTLMISRTPEVTCVVVDVSHEDPEVKFNWYVDGVEVHNAKTKPREEQYNSTYRVVSVLTVLHQDWLNGKEYKCKVSNKALPVPIEKTISKAKGQPREPQVYTLPPSREEMTKNQVSLTCLVKGFYPSDIAVEWESNGQPENNYKTTPPVLDSDGSFFLYSKLTVDKSRWQQGNVFSCSVMHEALHNHYTQKSLSLSPGK
0.000274 s⁻¹

Qu. Requested field: koff. Item: ActRIIB(L79D 20-134)-hFc (Fc fusion) GRGEAETRECIYYNANWELERTNQSGLERCEGEQDKRLHCYASWRNSSGTIELVKKGCWDDDFNCYDRQECVATEENPQVYFCCCEGNFCNERFTHLPEAGGPEVTYEPPPTAPTGGGTHTCPPCPAPELLGGPSVFLFPPKPKDTLMISRTPEVTCVVVDVSHEDPEVKFNWYVDGVEVHNAKTKPREEQYNSTYRVVSVLTVLHQDWLNGKEYKCKVSNKALPVPIEKTISKAKGQPREPQVYTLPPSREEMTKNQVSLTCLVKGFYPSDIAVEWESNGQPENNYKTTPPVLDSDGSFFLYSKLTVDKSRWQQGNVFSCSVMHEALHNHYTQKSLSLSPGK
Ans. 0.000439 s⁻¹
